# assayed.system: Disintegrin and metalloproteinase domain-containing protein 17 (Rattus norvegicus)
# Sequence (Q9Z1K9 whole entry, the tested form may be a part): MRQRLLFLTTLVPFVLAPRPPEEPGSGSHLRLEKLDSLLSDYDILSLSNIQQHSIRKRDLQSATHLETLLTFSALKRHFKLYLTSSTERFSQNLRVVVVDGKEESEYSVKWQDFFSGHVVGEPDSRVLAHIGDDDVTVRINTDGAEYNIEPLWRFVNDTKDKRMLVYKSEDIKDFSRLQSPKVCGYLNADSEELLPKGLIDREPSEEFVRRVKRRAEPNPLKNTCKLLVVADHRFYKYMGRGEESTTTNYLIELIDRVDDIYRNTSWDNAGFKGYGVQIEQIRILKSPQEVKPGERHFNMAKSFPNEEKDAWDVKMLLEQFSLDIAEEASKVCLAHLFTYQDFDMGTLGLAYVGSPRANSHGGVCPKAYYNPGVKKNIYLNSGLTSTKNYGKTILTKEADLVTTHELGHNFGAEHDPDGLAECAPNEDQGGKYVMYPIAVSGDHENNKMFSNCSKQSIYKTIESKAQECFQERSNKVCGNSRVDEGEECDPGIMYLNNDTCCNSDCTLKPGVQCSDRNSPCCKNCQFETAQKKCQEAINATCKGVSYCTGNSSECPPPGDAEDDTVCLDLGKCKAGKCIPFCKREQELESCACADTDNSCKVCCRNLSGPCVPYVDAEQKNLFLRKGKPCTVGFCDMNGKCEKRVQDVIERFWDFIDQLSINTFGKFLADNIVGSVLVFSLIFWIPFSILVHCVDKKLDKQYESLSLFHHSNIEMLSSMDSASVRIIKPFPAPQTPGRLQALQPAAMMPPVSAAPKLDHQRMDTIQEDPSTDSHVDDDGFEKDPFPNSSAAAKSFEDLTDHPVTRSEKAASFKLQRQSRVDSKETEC
Here the recorded IC50 is given for each entry.
Entry rule: numbers only, all in nM.

Answered examples (7):
C[C@@]1(O)CCCN(S(=O)(=O)c2ccc(OCc3ccc(F)cc3)cc2)[C@H]1C(=O)NO (stereo in doubt; 17) :: 14
CC[C@@]1(O)CCCN(S(=O)(=O)c2ccc(OCc3ccc(F)cc3)cc2)[C@H]1C(=O)NO :: 18
C[C@]1(O)CCCN(S(=O)(=O)c2ccc(OCc3ccc(F)cc3)cc2)[C@H]1C(=O)NO :: 11
CC[C@]1(O)CCCN(S(=O)(=O)c2ccc(OCc3ccc(F)cc3)cc2)[C@H]1C(=O)NO :: 1.7
C[C@@]1(O)CCCN(S(=O)(=O)c2ccc(OCc3ccc(F)cc3)cc2)[C@H]1C(=O)NO (stereo in doubt; 11) :: 14
CCCC[C@]1(O)CCCN(S(=O)(=O)c2ccc(OCc3ccc(F)cc3)cc2)[C@H]1C(=O)NO :: 23
Cc1cc(F)ccc1COc1ccc(S(=O)(=O)N2CCC[C@@](C)(O)[C@@H]2C(=O)NO)cc1 :: 15

Report IC50 for `Cc1c(F)cccc1COc1ccc(S(=O)(=O)N2CCC[C@@](C)(O)[C@@H]2C(=O)NO)cc1` please.
10

The origin of these recorded values is ChEMBL document CHEMBL1139577.
